target: Human immunodeficiency virus type 1 reverse transcriptase (Human immunodeficiency virus 1, UniProt Q72547)
quantity-measured: pIC50
Just the number, please; pIC50 means minus log10 of the concentration in mol/L.

# compound, pIC50
measured = [
    ("Cc1ccc(C23SCCN2C(=O)c2ccccc23)cc1 (configuration not stated)", 6.11),
]

Please indicate pIC50 recorded for O=C1c2ccccc2[C@@]2(c3cccc4ccccc34)SCCN12 6.82

Please indicate pIC50 recorded for O=C1c2ccccc2C2(c3ccccc3)SCCN12 (configuration not stated) 6.15

Please indicate pIC50 recorded for Cc1ccc(C)c(C23SCCN2C(=O)c2ccccc23)c1 (configuration not stated) 6.01

Please indicate pIC50 recorded for O=C1c2ccccc2C2(c3cccc([N+](=O)[O-])c3)SCCN12 (configuration not stated) 6.07

Please indicate pIC50 recorded for Cc1ccc(C23SCCN2C(=O)c2ccccc23)cc1C (configuration not stated) 6.41

Please indicate pIC50 recorded for Cc1cccc(C23SCCN2C(=O)c2cccnc23)n1 (configuration not stated) 5.18
